- System: MDA-MB-435
- ASSAY TEXT: NCI tumour cell line growth inhibition, 48 h
Where a SMILES comes first, the peptide text is derived from it. [ ]: non-standard residue; d: D form. NMeY = CN[C@@H](Cc1ccc(O)cc1)C(=O)O; dNMeF = CN[C@H](Cc1ccccc1)C(=O)O; Sar = CNCC(=O)O
In this section, each of the compounds is paired with its reported TGI.
Kindly answer with a numeric value in µM, unit omitted.

Here is how some compounds turned out for TGI.
What measured TGI goes with CC(C)[Si](OC1=C(C(=O)N(C)c2ccccc2Cl)CCCC1)(C(C)C)C(C)C ?
31.2

Another compound to check: CC[C@H](C)[C@@H]1NC(=O)[C@H](Cc2ccc(O)cc2)N(C)C(=O)[C@H](Cc2ccccc2)NC(=O)CN(C)C(=O)[C@@H]2CCCN2C(=O)[C@@H](Cc2ccccc2)N(C)C(=O)[C@H](CC(C)C)NC1=O (cyclo(F[NMeY]IL[dNMeF]P[Sar]))
1.7

The record that follows has no TGI shown yet.
I'd like to know its TGI. The compound in question is O=C1CSC(c2ccc(Cl)cc2)N1c1ccc(-c2ccc(-n3c(-c4ccccc4)nc4ccccc4c3=O)cc2)cc1 (centres undefined)
71.3

====

- Test system: BT-549 breast
- ASSAY TEXT: NCI tumour cell line growth inhibition, 48 h; in the data active = GI50 below about 0.43 µM; inactive = the rest
Thanks in advance; please answer with one of these: active, inactive

These solved cases illustrate the format of a correct answer.
Record request — test call for CC(=O)OC1CCC2(C)C(CCC3C4CC=C(C(C)=O)C4(C)OC(=O)CC32)C1 (configuration not stated)
inactive

Follow-up item: O=C(Nc1ccccc1)NS(=O)(=O)c1ccc(N2N=C3c4ccccc4CC3C2c2ccccn2)cc1 (configuration not stated)
inactive

Please give the result for O=C(OCC1OC(OC(=O)c2cc(O)c(O)c(OC(=O)c3cc(O)c(O)c(O)c3)c2)C(OC(=O)c2cc(O)c(O)c(OC(=O)c3cc(O)c(O)c(O)c3)c2)C(OC(=O)c2cc(O)c(O)c(OC(=O)c3cc(O)c(O)c(O)c3)c2)C1OC(=O)c1cc(O)c(O)c(OC(=O)c2cc(O)c(O)c(O)c2)c1)c1cc(O)c(O)c(OC(=O)c2cc(O)c(O)c(O)c2)c1 (configuration not stated) too.
inactive

Also, CN1CCN(Cc2ccc(NC(=O)c3nc4ccc5[nH]ncc5c4c4c3CCC4)cc2C(F)(F)F)CC1 please.
inactive

Record: C[C@]12CCC3c4ccc(O)cc4CCC3C1Cc1ccc(O)cc12 (some centres not stated)
inactive

Moving on to CCN(C(=O)CCl)C(C)(C)C(SSSC(c1ccc(Cl)cc1)C(C)(C)N(CC)C(=O)CCl)c1ccc(Cl)cc1 (configuration not stated)
inactive

Ok, now Nc1nc(N)c2c(ccc3nccc32)[nH]1
inactive

Another compound: O=C(NC(=S)NNC(=S)NNc1ccccc1)c1ccccc1
inactive

---
Could you please tell me the result logged for CNNC(=N\S(=O)(=O)c1cc(C(=O)Nc2ccc(Cl)cc2)c(Cl)cc1SCc1ccccc1)/N=C/c1ccc([N+](=O)[O-])s1 in this assay?
inactive

Another compound to look at: CC[C@H](C)[C@H](NC(=O)Nc1ccccc1)C(=O)N(C)[C@H](C[C@@H](OC(C)=O)c1nc(C(=O)N[C@@H](Cc2ccccc2)C[C@H](C)C(=O)OC)cs1)C(C)C
inactive

Do the same for N#CSCc1c(Cl)cccc1Cl please
inactive

Likewise for CC1(C)CC(OCCCC[P+](c2ccccc2)(c2ccccc2)c2ccccc2)CC(C)(C)N1O ?
active

====

- Test system: A549 NSCLC
- ASSAY TEXT: NCI tumour cell line growth inhibition, 48 h
Reported TGI values for the following compounds.

Before answering, review these 3 worked examples.
Would you mind telling me what TGI value was observed for COc1cc2ccnc(-c3c4ccccc4c(N)c4c(OC)c(OC)ccc34)c2cc1OC ?
17.3 µM

Lookup COc1ccc2c(c1)sc1nc(-c3ccccc3)c(-c3ccc(O)c(OC)c3)n12
> 100 µM

And then CN1CCN(Cc2ccc(NC(=O)c3nc4ccc5[nH]ncc5c4c4c3CCC4)cc2C(F)(F)F)CC1 , what is it?
1.83 µM

New cases:
Value lookup for TGI; key = C#C[C@@]1(O)[C@@H](CO)O[C@@H](n2ccc3c(N)ncnc32)[C@@H]1O
> 100 µM

Repeat with CCN(CC)CCn1c2cc3c(cc2c(=O)c2cccnc21)OCO3
> 10 µM

====

- Test system: A549 NSCLC
- ASSAY TEXT: NCI tumour cell line growth inhibition, 48 h
MEASURED METRIC: TGI (µM)
Reply with just the number (in µM).

Item ICCC(c1ccccc1)(c1ccccc1)c1ccccc1 has what recorded TGI?
19.6

Moving on to another compound below.
Which TGI is listed for COc1cc2nc(N3CCCC3)nc(Nc3ccccc3)c2cc1OC ?
4.31

====

- Test system: UACC-257 melanoma
- ASSAY TEXT: NCI tumour cell line growth inhibition, 48 h
MEASURED METRIC: TGI

For the compound shown here, NC(CSc1nc2ccccn2c1[N+](=O)[O-])C(=O)O (stereo unspecified) , give the reported TGI.
> 100 µM

Another compound: CCN(CC)CCn1c2cc3c(cc2c(=O)c2cccnc21)OCO3
> 10 µM

Also need Cc1c(C(=O)/C=C/c2ccccc2Cl)[n+](=O)c2ccccc2n1[O-] , thanks.
27.2 µM

How about NC(=O)Nc1cc(O)ccc1N=Nc1ccc(S(=O)(=O)Nc2ccccn2)cc1 ?
> 100 µM

Follow-up item: Cc1nc(-c2nc(C)c(C(=O)NN(C)C)s2)sc1C(=O)NN(C)C
> 100 µM

Please answer likewise for COc1cc2c(c(OC)c1OC)-c1ccc(SC)c(=O)cc1[C@@H](NCc1cccc(C#N)c1)CC2
> 75 µM

Continue with COc1cc2c(cc1OC)C1CCc3ccccc3CN1CC2 (stereo unspecified)
> 100 µM

Same lookup for CCOC(=O)NC , please.
> 100 µM

Next:
Any idea what TGI was measured for COCOCC1CCCN1CN1CCC[C@H]1COCOC (stereo partly specified) ?
> 100 µM

Another compound: Cc1cc(N(CCCCl)CCCCl)ccc1C=Nc1cccc(Cl)c1
20.2 µM

Repeat with Nc1ccc(Nc2c3ccccc3nc3ccccc23)cc1
> 10 µM

====

- System: UACC-257 melanoma
- ASSAY TEXT: NCI tumour cell line growth inhibition, 48 h
MEASURED METRIC: TGI (µM)
Expressed in µM, but write only the number.

Examples from the recorded data:
Sample CCC[CH2][Ge]([CH2]CCC)([CH2]CCC)[O]C(=O)C(O)c1ccccc1 (stereo not given) — what was its TGI?
15.5

And what about the molecule O=C(CC(=O)Nc1ccccc1O)Nc1ccccc1O ?
30

Same again, this time with Cc1ccc(C2(O)CC(c3ccc([N+](=O)[O-])o3)=NN2C(=O)COc2ccccc2Cl)cc1 (stereo not given)
53.6

# input for lookup
What value of TGI has been recorded for this entry: Nc1nc(N)c2c(ccc3nccc32)[nH]1
17.9

====

Below, each entry is listed alongside its reported TGI.
- Test system: LXFL 529 NSCLC
- ASSAY TEXT: NCI tumour cell line growth inhibition, 48 h
Write it as a number; the unit µM goes unstated.

Solved cases (3 shown):
Find the recorded TGI belonging to COc1cc2ccnc(-c3c4ccccc4c(N)c4c(OC)c(OC)ccc34)c2cc1OC and report it.
15.7

What do we get for Cc1c(C(=O)/C=C/c2ccccc2Cl)[n+](=O)c2ccccc2n1[O-] ?
20

And the next one, NC(=S)NNC(=O)CCC(=O)Nc1ccc(Cl)cc1Cl ?
86.9

Okay, now this compound:
Item COc1c(NC(=O)CC(C)=O)[c]([Hg][O]C(C)=O)c(OC)c(Cl)[c]1[Hg][O]C(C)=O has what recorded TGI?
11.1

====

- System: SNB-19 CNS
- ASSAY TEXT: NCI tumour cell line growth inhibition, 48 h
MEASURED METRIC: TGI

Known TGI results, listed for orientation:
Would you mind telling me what TGI value was observed for O=C(O)CCCCCO ?
> 100 µM

// query: COc1ccc2c(c1)sc1nc(-c3ccccc3)c(-c3ccc(O)c(OC)c3)n12
> 100 µM

What do you get for ClC1=NC(Cl)C(Cl)=N/C1=N\c1ncn[nH]1 (stereo unspecified) ?
25.4 µM

Further, for CC(C)(C)OC(=O)NC1CCC[C@H]1O (stereo partly specified) ?
> 100 µM

Entry to check: COc1cc2ccnc3c2c(c1OC)-c1ccc(=O)ccc1-3
> 100 µM

---
For the compound CN(C)CCNC(=O)Cn1ccc(=O)c2ccc([N+](=O)[O-])cc21 , what TGI is on record?
> 100 µM

What about CCC[CH2][Sn]([CH2]CCC)([O]C(=O)c1cc(OC)c(OC)cc1OC)[O]C(=O)c1cc(OC)c(OC)cc1OC ?
1.82 µM

Try the compound COc1cc2nc(-c3ccccc3F)[nH]c(=O)c2cc1OC
> 100 µM
